- ASSAY COMMENT: CC50 assay in Huh-7 HCV replicon cells (CellTiter-Glo)
- Type: cell-based
- APPLIED CONDITIONS: human, 3 days incubation, CellTiter-Glo luminescence

>  <COMPOUND>
COC[C@@H](C)Oc1nc(N)nc2ccc(-c3ccc(F)cc3)nc12

>  <CC50 at 3 days>
10 to 20 µM

$$$$
>  <COMPOUND>
CCC(CC)Oc1nc(N)nc2ccc(-c3ccc(F)cc3)nc12

>  <CC50 at 3 days>
< 10 µM

$$$$
>  <COMPOUND>
Nc1nc(O[C@@H]2CCOC2)c2nc(-c3ccc(F)cc3)ccc2n1

>  <CC50 at 3 days>
> 20 µM

$$$$
>  <COMPOUND>
Nc1nc(OCC2CCOC2)c2nc(-c3ccc(F)cc3)ccc2n1 (centres unmarked)

>  <CC50 at 3 days>
10 to 20 µM

$$$$
>  <COMPOUND>
Nc1nc(OCC(F)F)c2nc(-c3ccc(F)cc3)ccc2n1

>  <CC50 at 3 days>
> 20 µM

$$$$

====

- ASSAY COMMENT: CC50 assay in Huh-7 HCV replicon cells (CellTiter-Glo)
- Format: cell-based
- APPLIED CONDITIONS: human, 3 days incubation, CellTiter-Glo luminescence

>  <COMPOUND>
Nc1nc(OCC2CC2)c2nc(-c3ccc(F)cc3)ccc2n1 [Example 22]

>  <CC50 at 3 days>
> 20 µM

$$$$
>  <COMPOUND>
Nc1nc(O[C@H]2CCOC2)c2nc(-c3ccc(F)cc3)ccc2n1 [Example 16]

>  <CC50 at 3 days>
> 20 µM

$$$$
>  <COMPOUND>
CCOCCOc1nc(N)nc2ccc(-c3ccc(F)cc3)nc12 [Example 24]

>  <CC50 at 3 days>
> 20 µM

$$$$
>  <COMPOUND>
Nc1nc(OC2CCCC2)c2nc(-c3ccc(F)cc3)ccc2n1 [Example 11]

>  <CC50 at 3 days>
> 20 µM

$$$$
>  <COMPOUND>
CCOC(C)COc1nc(N)nc2ccc(-c3ccc(F)cc3)nc12 (stereo not drawn) [Example 5]

>  <CC50 at 3 days>
> 20 µM

$$$$
>  <COMPOUND>
COC[C@H](C)Oc1nc(N)nc2ccc(-c3ccc(F)cc3)nc12 [Example 37]

>  <CC50 at 3 days>
> 20 µM

$$$$
>  <COMPOUND>
Nc1nc(OC2CCCCC2)c2nc(-c3ccc(F)cc3)ccc2n1 [Example 32]

>  <CC50 at 3 days>
< 10 µM

$$$$
>  <COMPOUND>
Nc1nc(OC2CCOCC2)c2nc(-c3ccc(F)cc3)ccc2n1 [Example 33]

>  <CC50 at 3 days>
10 to 20 µM

$$$$
>  <COMPOUND>
COC(C)(C)CCOc1nc(N)nc2ccc(-c3ccc(F)cc3)nc12 [Example 12]

>  <CC50 at 3 days>
> 20 µM

$$$$

====

// melting point lookup, one value per entry

>  <COMPOUND>
Nc1nc(OC2CCCCC2)c2nc(-c3ccc(F)cc3)ccc2n1 [Example 32]

>  <READOUT UNIT>
°C

>  <melting point>
180

$$$$
>  <COMPOUND>
Nc1nc(OCC2CCOC2)c2nc(-c3ccc(F)cc3)ccc2n1 (stereo not shown) [Example 36]

>  <READOUT UNIT>
°C

>  <melting point>
219

$$$$
>  <COMPOUND>
Nc1nc(OCC2CCCCO2)c2nc(-c3ccc(F)cc3)ccc2n1 (stereo not shown) [Example 34]

>  <READOUT UNIT>
°C

>  <melting point>
202

$$$$
>  <COMPOUND>
Nc1nc(OCC2CCCO2)c2nc(-c3ccc(F)cc3)ccc2n1 (stereo not shown) [Example 35]

>  <READOUT UNIT>
°C

>  <melting point>
193

$$$$

====

- ASSAY COMMENT: CC50 assay in Huh-7 HCV replicon cells (CellTiter-Glo)
- Type: cell-based
- APPLIED CONDITIONS: human, 3 days incubation, CellTiter-Glo luminescence
- Method: The anti-HCV activity of the pyrido[3,2-d]pyrimidine derivatives of this invention was tested in a human hepatoma Huh-7 cell line harbouring a HCV replicon. The assay comprised the following steps: Step 1: Compound Preparation and Serial Dilution • 1. for water soluble pyrido[3,2-d]pyrimidine derivatives, a volume of 500 μL of solution in cell media (DMEM, 10% FBS, P/S, L-Glutamine) was prepared with a concentration being twice the concentration of the starting final serial dilution concentration. […]
# Lookup of reported CC50 at 3 days keyed by entry
RECORDED METRIC: CC50 at 3 days

>  <MOLECULE>
CS(=O)(=O)CCOc1nc(N)nc2ccc(-c3ccc(F)cc3)nc12 [Example 19]

>  <RECORDED METRIC>
CC50 at 3 days

>  <RESULT>
> 20 µM

$$$$
>  <MOLECULE>
Nc1nc(OCCN2CCOCC2)c2nc(-c3ccc(F)cc3)ccc2n1 [Example 21]

>  <RECORDED METRIC>
CC50 at 3 days

>  <RESULT>
> 20 µM

$$$$
>  <MOLECULE>
Nc1nc(OCC2CCCO2)c2nc(-c3ccc(F)cc3)ccc2n1 (stereo not drawn) [Example 35]

>  <RECORDED METRIC>
CC50 at 3 days

>  <RESULT>
10 to 20 µM

$$$$
>  <MOLECULE>
COCCOc1nc(N)nc2ccc(-c3ccc(F)cc3)nc12 [Example 23]

>  <RECORDED METRIC>
CC50 at 3 days

>  <RESULT>
> 20 µM

$$$$
>  <MOLECULE>
CC(C)OCCOc1nc(N)nc2ccc(-c3ccc(F)cc3)nc12 [Example 6]

>  <RECORDED METRIC>
CC50 at 3 days

>  <RESULT>
> 20 µM

$$$$
>  <MOLECULE>
Nc1nc(OC2CO[C@H]3OCC[C@@H]23)c2nc(-c3ccc(F)cc3)ccc2n1 (stereo partly drawn) [Example 18]

>  <RECORDED METRIC>
CC50 at 3 days

>  <RESULT>
> 20 µM

$$$$
>  <MOLECULE>
CC#CCCOc1nc(N)nc2ccc(-c3ccc(F)cc3)nc12 [Example 14]

>  <RECORDED METRIC>
CC50 at 3 days

>  <RESULT>
> 20 µM

$$$$
>  <MOLECULE>
Nc1nc(OCC2CCCCO2)c2nc(-c3ccc(F)cc3)ccc2n1 (stereo not drawn) [Example 34]

>  <RECORDED METRIC>
CC50 at 3 days

>  <RESULT>
10 to 20 µM

$$$$
>  <MOLECULE>
Nc1nc(OCC2CCCC2)c2nc(-c3ccc(F)cc3)ccc2n1 [Example 10]

>  <RECORDED METRIC>
CC50 at 3 days

>  <RESULT>
> 20 µM

$$$$
